test: SK-BR-3 cell growth inhibitors, pilot screen, 24 h, human (AID 572); conditions: SK-BR-3 viability, CellTiter-Glo luminescence, at 10 µM, stronger effect = lower value;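 also: compound exposure lasted between 18 and 24 h rather than exactly 24 h; 100% = carrier-treated control wells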
quantity measured: viability (%)
Give bare numbers, in %.

Worked set:
Nc1nc2ccccc2n1C(=O)CCc1ccccc1 ... 102
C[C@]12C[C@H](O)[C@H]3[C@@H](CCC4=CC(=O)CC[C@@]43C)[C@@H]1CC[C@@H]2C(=O)CO ... 106
Cc1cc(NC(=O)COc2cccc3cccnc23)no1 ... 93

Below is a list of compounds. For each, state its recorded viability.
1. CCN(CC)C(=O)Cn1c(=O)n(Cc2ccccc2Cl)c2c1c(=O)n(C)c(=O)n2C
2. Cc1ccc2nsnc2c1S(=O)(=O)N(Cc1cc2cccc(C)c2[nH]c1=O)CC1CCCO1 (stereo not drawn)
3. O=C(Nc1nc(-c2ccccc2)cs1)C1CCCCN1S(=O)(=O)c1ccccc1 (stereo not drawn)
4. O=C(C1CCC(N2C(=O)C3CC=CCC3C2=O)CC1)N1CCCCC1 (stereo not drawn)
5. CS(=O)(=O)N1CCCC(C(=O)NCc2ccccc2Cl)C1 (stereo not drawn)

Marked response:
1: 98; 2: 81.5; 3: 100; 4: 75.5; 5: 99
